- Test system: Pseudomonas fluorescens FW300-N2E2
- MEASUREMENT_CONDITIONS: medium / electron acceptor: N2E2 Glucose/aerobic
MEASUREMENT_LABEL: IC50 growth inhibition (µM)

>>> reported_value("[I-].[Na+] [sodium iodide]")
59400
>>> reported_value("[Cl-].[Cl-].[Sr+2] [Strontium chloride]")
332
>>> reported_value("[Na+].[O]=[V](=[O])[O-] [Sodium metavanadate]")
79.3

====

- Test system: Rhodanobacter sp. FW104-10B01
- MEASUREMENT_CONDITIONS: medium / electron acceptor: 10B01 R2A/aerobic
Known IC50 growth inhibition of a selection of compounds
MEASUREMENT_LABEL: IC50 growth inhibition

>>> reported_value("O=S([O-])[O-].[Na+].[Na+] [sodium sulfite]")
"> 500 mM"
>>> reported_value("O.[Au+3].[Cl-].[Cl-].[Cl-] [gold (III) chloride hydrate]")
"< 0.000244 mM"
>>> reported_value("O=NO [Sodium nitrite]")
"> 50 mM"
>>> reported_value("O=[N+]([O-])[O-].[Na+] [Sodium nitrate]")
"> 500 mM"
>>> reported_value("[Br-].[Na+] [sodium bromide]")
"> 500 mM"
